Target: T1, biotin labeled antigen peptide (a fragment of the CD20 extracellular domain) (human, UniProt P11836 163-187, limits assumed, biotin labeled (position not given))
T1 construct: domain: a fragment of the CD20 extracellular domain; also called short peptide CD20; CD20 antigen
T1 peptide (looked up): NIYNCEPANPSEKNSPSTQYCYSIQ
Experiment: Biacore SPR, biotin-CD20 peptide on SA chip; ratio against commercially available rituximab
Rule: KdRitu/Kdmutant below 2 gives Met. Equal to or above 2 gives Not met.

BINDER	ASSIGNED CATEGORY
C2B8 antibody mutant Rmut4 (H102YR) (antibody, V domains shown) VH: QVQLQQPGAELVKPGASVKMSCKASGYTFTSYNMHWVKQTPGRGLEWIGAIYPGNGDTSYNQKFKGKATLTADKSSSTAYMQLSSLTSEDSAVYYCARSTYRGGDWYFNVWGAGTTVTVSA VL: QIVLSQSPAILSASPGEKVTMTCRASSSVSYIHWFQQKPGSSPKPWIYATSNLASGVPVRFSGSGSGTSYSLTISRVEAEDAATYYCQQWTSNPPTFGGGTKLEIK	Not met
C2B8 antibody mutant Rmut5 (H102YS) (antibody, V domains shown) VH: QVQLQQPGAELVKPGASVKMSCKASGYTFTSYNMHWVKQTPGRGLEWIGAIYPGNGDTSYNQKFKGKATLTADKSSSTAYMQLSSLTSEDSAVYYCARSTYSGGDWYFNVWGAGTTVTVSA VL: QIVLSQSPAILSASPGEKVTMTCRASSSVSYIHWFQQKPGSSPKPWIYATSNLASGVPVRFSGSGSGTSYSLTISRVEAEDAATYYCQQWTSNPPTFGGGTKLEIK	Not met
C2B8 antibody mutant Rmut7 (H102YK) (antibody, V domains shown) VH: QVQLQQPGAELVKPGASVKMSCKASGYTFTSYNMHWVKQTPGRGLEWIGAIYPGNGDTSYNQKFKGKATLTADKSSSTAYMQLSSLTSEDSAVYYCARSTYKGGDWYFNVWGAGTTVTVSA VL: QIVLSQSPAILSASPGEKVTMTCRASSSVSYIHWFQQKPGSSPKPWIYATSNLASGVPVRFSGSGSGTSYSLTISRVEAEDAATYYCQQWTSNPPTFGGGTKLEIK	Not met
C2B8 antibody mutant Rmut2 (H55NR) (antibody, V domains shown) VH: QVQLQQPGAELVKPGASVKMSCKASGYTFTSYNMHWVKQTPGRGLEWIGAIYPGRGDTSYNQKFKGKATLTADKSSSTAYMQLSSLTSEDSAVYYCARSTYYGGDWYFNVWGAGTTVTVSA VL: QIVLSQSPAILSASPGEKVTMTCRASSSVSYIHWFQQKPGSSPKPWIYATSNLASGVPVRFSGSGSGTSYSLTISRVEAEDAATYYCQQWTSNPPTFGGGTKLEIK	Met
C2B8 antibody mutant Rmut3 (H57DE) (antibody, V domains shown) VH: QVQLQQPGAELVKPGASVKMSCKASGYTFTSYNMHWVKQTPGRGLEWIGAIYPGNGETSYNQKFKGKATLTADKSSSTAYMQLSSLTSEDSAVYYCARSTYYGGDWYFNVWGAGTTVTVSA VL: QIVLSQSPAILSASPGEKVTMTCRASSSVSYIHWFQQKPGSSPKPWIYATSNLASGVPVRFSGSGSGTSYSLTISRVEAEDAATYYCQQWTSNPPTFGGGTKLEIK	Not met
